All figures here come from PubChem BioAssay (NCI).

Recorded TGI values for a group of compounds are listed next.
System: NCI-H522 lung
experimental.details: NCI tumour cell line growth inhibition, 48 h
Give the number; µM is assumed, so skip it.

CC(C)(C)OC(=O)CC(S(=O)(=O)c1ccccc1)S(=O)(=O)c1ccccc1    3.53

Please turn your attention to the following entry.
Measured TGI of Cc1nc2sc(C(=O)Nc3cccc(Cl)c3)c(N)c2cc1C(O)c1ccccc1 (stereo not drawn) : 18.3

---

Test system: ACHN renal
experimental.details: NCI tumour cell line growth inhibition, 48 h; in the data active = GI50 below about 0.43 µM; inactive = the rest
# output must be one of active, inactive

Cn1cc(C2=C(c3cccc([N+](=O)[O-])c3)C(=O)NC2=O)c2ccccc21    inactive
C=C(c1ccc(C(=O)NCCCn2ccnc2)cc1)c1cc2c(cc1C)C(C)(C)CCC2(C)C    inactive

For the next question, use this compound.
stdin: Please state the recorded outcome for this compound: O=C(NCCNC1=CC(=O)c2nc3ccccc3c3ccnc1c23)c1cnccn1
stdout: inactive

---

Test system: A498 renal
experimental.details: NCI tumour cell line growth inhibition, 48 h
Catalogue of molecules with associated TGI

Some molecules with known TGI results, for comparison:
C#CCN(CCCOc1ccc(Cl)cc1Cl)CCCSC(=O)CCCCCN1/C(=C\C=C2/CCCC(/C=C/C3=[N+](CCCCCC(=O)[O-])c4ccccc4C3(C)C)=C2Cl)C(C)(C)c2ccccc21    4.12 µM
CC1CC(C)(C)CC(OCCN2CCCCC2)(c2ccccc2)C1 (stereo unspecified)    26.1 µM

For record C/C(=C\C(=O)O)C(=O)N(C)c1ccccc1I the listed TGI is > 100 µM

Sure, the documented TGI for CCCC/C=C1/CCC(CN(C)C)C1=O (stereo unspecified) is 15.9 µM

Lab note: measured TGI of CCCCCCCC(=O)OC[n+]1cccc(-c2c(COC(=O)NC(C)C)c(COC(=O)NC(C)C)c3n2CCC3)c1 was > 89.4 µM

Given item Cn1cc(C2=C(c3cccc([N+](=O)[O-])c3)C(=O)NC2=O)c2ccccc21 , the value recorded as its TGI is 1.81 µM

---

Test system: SN12C renal
experimental.details: NCI tumour cell line growth inhibition, 48 h
observed.property: TGI (µM)
Your answer should be a plain number; it is taken to be in µM.

A selection of reference data follows.
Cc1cc(Br)c(O)c(-c2cscn2)c1    23.6
Cc1c(-c2ccccc2)oc(=O)c2ccccc12    38.1

response.value for COc1cc(-c2ccc[nH]2)[nH]c1/C=C1\N=C(C)C(C(=O)NC(C)C)=C1C (field: TGI) = 24

---

Test system: TK-10 renal
experimental.details: NCI tumour cell line growth inhibition, 48 h
observed.property: TGI

Below are worked cases with known answers.
CCOC1OC(C)(C=C(C#N)C#N)CCC1C (stereo not given)    > 100 µM
CN(Cc1cnc2nc(N)nc(N)c2n1)c1c(Cl)cc(C(=O)NC(CCC(=O)O)C(=O)O)cc1Br (stereo not given)    > 100 µM
CCOC(=O)/C(=C/c1cn(C(C)=O)c2ccccc12)P(=O)(OC)OC    > 100 µM
COc1ccc(/C=C2\N=C3N(Cc4ccccc4)C=C(N)N3C2=O)cc1    > 100 µM
CN(C)CCC(/C=C/c1ccccc1)=N\Nc1c(F)c(F)c(F)c(F)c1F    > 100 µM

Value of TGI reported for the compound CCCCCCCC(=O)OC[n+]1cccc(-c2c(COC(=O)NC(C)C)c(COC(=O)NC(C)C)c3n2CCC3)c1 is > 100 µM

Data point: COc1cc(C(=O)Nc2ccc(-c3nc4ccccc4[nH]3)cc2)cc(OC)c1OC ; TGI = 29.3 µM

In plain terms, Cn1c(COC(=O)NC2CCCCC2)c(COC(=O)NC2CCCCC2)c2ccc3ccccc3c21 has a documented TGI of > 100 µM

get_value(item= CN(C)CC(=O)N1CCc2c([nH]c3ccccc23)C1c1cccnc1 (stereo not given) , readout=TGI) returns > 100 µM

# TGI (compound: CCCCCCCCCCCCCCCCOC[C@H](COC(c1ccccc1)(c1ccccc1)c1ccccc1)O[P+](=S)OC (stereo not given in full) ) is > 100 µM
